// data source = PubChem BioAssay

assay: modulators of S6 phosphorylation in cells, primary screen, cell-based, A549, cytoblot, luminescence, serum-stimulated (AID 1158); conditions: A549 phospho-S6 cytoblot, 5 h, higher = more signal;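 note: serum-stimulated A549 lung adenocarcinoma cells; signal is phosphorylated S6 detected by cytoblot immunostaining with HRP secondary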
Endpoint label: z-score
Quick one: just the number, no unit, thanks!

// below: answered compounds
>  <Compound>
COC(=O)[C@@]1(Cc2ccccc2N=[N+]=[N-])COC(c2ccc(OCCCO)cc2)=N1

>  <z-score>
-0.317

$$$$
>  <Compound>
C=CC[C@@]1(C(=O)NCC(O)CO)N=C(c2ccc(OCCCO)cc2)O[C@@H]1c1ccccc1N=[N+]=[N-] (stereo partly specified)

>  <z-score>
1.58

$$$$
>  <Compound>
O=C1OCC=C[C@H]2OC34C=CCN(c5ccc6ccccc6c5)C(=O)[C@H]3N(CCCO)C(=O)[C@@H]4[C@@H]12 (stereo partly specified)

>  <z-score>
1.28

$$$$
>  <Compound>
C=CCOC(=O)[C@@H]1[C@H]2C(=O)O[C@H](c3ccccc3)[C@H](c3ccccc3)N2[C@H](c2ccc(OCCOC(=O)[C@@H]3C[C@@H]4C(=O)N[C@@H](Cc5ccccc5)C(=O)N4[C@@H]3c3cccc(OCCO)c3)cc2)[C@@]12C(=O)Nc1ccc(I)cc12

>  <z-score>
-0.479

$$$$
>  <Compound>
CCOC(=O)[C@H]1C/C=C/C[C@H](C(=O)OCC)C(=O)O[C@H]2[C@@H](OC)O[C@H](CO)[C@@H](OC(=O)Nc3ccc4c(c3)OCO4)[C@@H]2OC1=O

>  <z-score>
0.483

$$$$

Then there is this compound:
State the recorded z-score for this entry: `O=c1cccc(CCc2ccccc2)o1`
-0.467

----------
Measured composite z-score of individual entries
assay: binders of probe aFST on microarray, primary screen, stem cell growth factor project, biochemical, small-molecule microarray, fluorescence 635/667 (AID 1086); conditions: higher = more signal;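 note: score merges 667 nm fluorescence with signal-to-noise of each printed compound spot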
Quick one: just the number, no unit, thanks!

// below: answered compounds
>  <Compound>
Cc1c(NC(=O)CC#N)c(=O)n(-c2ccccc2)n1C

>  <composite z-score>
0.404

$$$$
>  <Compound>
C=C(COC)C(=O)CC[C@H](OC(C)=O)c1cccc(OCCO)c1

>  <composite z-score>
-0.392

$$$$
>  <Compound>
COCCCNC(=O)[C@@]1(CCC(=O)OC(C)(C)C)N=C(c2ccc(OCCCO)cc2)O[C@H]1c1ccccc1CN=[N+]=[N-]

>  <composite z-score>
1.53

$$$$

State the recorded composite z-score for this entry: `CCOC(=O)C[C@H]1[C@H](OC(=O)c2ccccc2-c2ccccc2)[C@@H](NC(=O)Cc2ccc(OC)cc2)c2cc(OCCCO)ccc2N1C(=O)c1ccccc1`
0.369

// same read-out, input: `COc1cc2c(cc1OC)CN(C(=O)[C@@H]1[C@H]3C(=O)O[C@H](c4ccccc4)[C@H](c4ccccc4)N3[C@H](c3ccccc3OCCO)[C@@]13C(=O)Nc1ccc(C#CCNC(N)=O)cc13)CC2`
0.237

// same read-out, input: Cc1cc(C)cc(N2C(=O)CS(=O)(=O)C2c2cccc([N+](=O)[O-])c2)c1 (stereo not drawn)
1.18

// same read-out, input: CC(c1ccccc1)C(O)C1C=CC2C(=O)NC(=O)C2N1Nc1ccccn1 (stereo not drawn)
0.421

// same read-out, input: `O=c1oc(-c2ccccc2)nc2cc(Br)ccc12`
0.127

----------
test system: Inhibin beta A chain (activin A); experiment: INHBA (activin A) binders on microarrays, primary screen, biochemical, small-molecule microarray, 635 nm fluorescence scan (AID 1107); conditions: small-molecule microarray binding, higher = more signal;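 note: mouse activin A protein probed at 4.33 µg/mL on printed slides; score merges bound-protein fluorescence near 667 nm with spot signal-to-noise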
Measured composite z-score of individual entries
Quick one: just the number, no unit, thanks!

State the recorded composite z-score for this entry: `CC(C)C(=C=CC[C@H](O)c1ccccc1OCCO)C[C@H](O)c1ccccn1`
0.407

// same read-out, input: COc1ccc(C(O)C2C=CC3C(=O)NC(=O)C3N2Nc2ccccn2)cc1OCc1ccccc1 (stereo not drawn)
0.557

----------
target: Pro-neuregulin-1, membrane-bound isoform (Homo sapiens); assay: NRG1 binders on small-molecule microarrays, primary screen, psychiatric disease protein project, biochemical, small-molecule microarray, fluorescence 635/667 (AID 1075); conditions: NRG1 binding, 635 nm fluorescence, higher = more signal;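 note: score combines 667 nm spot fluorescence with signal to noise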
Measured composite z-score of individual entries
Quick one: just the number, no unit, thanks!

// below: answered molecules
>  <Molecule>
[N-]=[N+]=NCc1ccccc1[C@@H]1OC(c2ccc(OCCCO)cc2)=N[C@]1(Cc1ccccc1)C(=O)N1CCCCC1

>  <System under test>
Pro-neuregulin-1, membrane-bound isoform (Homo sapiens)

>  <Endpoint label>
composite z-score

>  <Data value>
1.18

$$$$
>  <Molecule>
Cc1ccccc1C(O)C1C=CC2C(=O)N(C)C(=O)C2N1N1CCCCC1 (configuration not stated)

>  <System under test>
Pro-neuregulin-1, membrane-bound isoform (Homo sapiens)

>  <Endpoint label>
composite z-score

>  <Data value>
1.42

$$$$
>  <Molecule>
NC(=O)NCC#Cc1ccc2c(c1)[C@]1(C(=O)N2)[C@H](C(=O)NC[C@H](O)c2ccccc2)[C@H]2C(=O)O[C@H](c3ccccc3)[C@H](c3ccccc3)N2[C@@H]1c1ccc(O)cc1

>  <System under test>
Pro-neuregulin-1, membrane-bound isoform (Homo sapiens)

>  <Endpoint label>
composite z-score

>  <Data value>
1.38

$$$$
>  <Molecule>
COCCOC(=O)N1C(=O)[C@@]2(c3cc(C#CC4(O)CCCCCC4)ccc31)[C@H](C(=O)N1CCCCCCC1)[C@H]1C(=O)O[C@H](c3ccccc3)[C@H](c3ccccc3)N1[C@@H]2c1ccccc1OCCO

>  <System under test>
Pro-neuregulin-1, membrane-bound isoform (Homo sapiens)

>  <Endpoint label>
composite z-score

>  <Data value>
1.17

$$$$
>  <Molecule>
CC(C)C(=C=CC[C@H](O)c1ccccc1OCCO)C[C@H](O)c1ccccn1

>  <System under test>
Pro-neuregulin-1, membrane-bound isoform (Homo sapiens)

>  <Endpoint label>
composite z-score

>  <Data value>
1.66

$$$$

State the recorded composite z-score for this entry: CCCCC(O)C1C=CC2C(=O)N(C3CCCCC3)C(=O)C2N1Nc1ccc(OC)cc1 (configuration not stated)
1.29

// same read-out, input: `[N-]=[N+]=NCc1ccccc1C[C@]1(C(=O)NCCN2CCOCC2)N=C(c2ccc(OCCCO)cc2)O[C@H]1c1ccccc1N=[N+]=[N-]`
1.6

----------
experiment: PSAC antagonists in infected red cells, primary screen, cell-based, P. falciparum Indochina, OD700, 2 h (AID 1155);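 note: lysis reports solute entry through the parasite surface anion channel PSAC; channel blockers reduce lysis of infected cells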; conditions: P. falciparum Indochina infected erythrocytes, osmotic lysis OD700; higher = more signal, called active from +8 up or from −8 down
The source made the active and inactive calls.
Measured z-score of individual entries

>  <Molecule>
C=CCNC(=O)[C@H]1[C@@H]2C(=O)O[C@@H](c3ccccc3)[C@@H](c3ccccc3)N2[C@@H](c2ccc(O)cc2)[C@]12C(=O)N(C(=O)OCCOC)c1ccc(C#CCCO)cc12

>  <z-score>
0.658 (inactive)

$$$$
>  <Molecule>
CCOC(=O)C1=CCC(C(C)(C)C)N(S(=O)(=O)c2ccc(C)cc2)C1 (stereo not given)

>  <z-score>
0.768 (inactive)

$$$$
>  <Molecule>
O=c1cccc(C=Cc2ccccc2)o1

>  <z-score>
0.88 (inactive)

$$$$
>  <Molecule>
CN(C)C(=O)[C@]1(CCC(=O)OC(C)(C)C)N=C(c2ccc(OCCCO)cc2)O[C@@H]1c1ccccc1N=[N+]=[N-]

>  <z-score>
29.8 (active)

$$$$
>  <Molecule>
O=C1O[C@@H](c2ccccc2)[C@@H](c2ccccc2)N2[C@@H](c3ccc(OCCO)cc3)[C@]3(C(=O)Nc4ccccc43)[C@@H](C(=O)Nc3nc4ccccc4s3)[C@H]12

>  <z-score>
2.55 (inactive)

$$$$
>  <Molecule>
COC(=O)c1ccc(OC)c(/C=C\CC(OC(C)=O)c2ccccc2)c1 (stereo not given)

>  <z-score>
0.898 (inactive)

$$$$

State the recorded z-score for this entry: `C=CC[C@@H](OC(=O)Nc1ccc(OC)cc1)c1ccc(O)c2ccccc12`
0.661 (inactive)

// same read-out, input: C=CCC(OC(C)=O)[C@@H]1[C@@H](N(Cc2cccc3ccccc23)C(=O)c2cccc3ccccc23)c2cc(OCCCO)ccc2N1C(=O)c1ccc2ccccc2n1 (stereo not given in full)
0.613 (inactive)

// same read-out, input: CCOC(=O)[C@H]1C[C@H]2O[C@@]23C[C@H]1C(=O)N1CCCC1[C@@H]3O[Si](C)(C)C(C)(C)C (stereo not given in full)
0.23 (inactive)

// same read-out, input: `C[C@]1(C(=O)NCc2ccccc2)c2ccccc2C(=O)N(Cc2ccc(OC(F)(F)F)cc2)[C@H]1c1ccc(CO)cc1`
-0.18 (inactive)

// same read-out, input: `O=C1O[C@H](c2ccccc2)[C@H](c2ccccc2)N2[C@H]1[C@@H](C(=O)O)[C@]1(C(=O)Nc3ccc(C#CC4(O)CCCCCC4)cc31)[C@H]2c1ccc(OCCO)cc1`
-0.795 (inactive)

// same read-out, input: `C=CC(=C)C1=CCO[C@@H]1[C@H]1CCCN1S(=O)(=O)c1ccccc1[N+](=O)[O-]`
0.577 (inactive)

// same read-out, input: `CC(C)C[C@@H]1NC(=O)[C@H]2C[C@@H](C(=O)NCCCCCCNC(=O)CS)[C@@H](c3cccc(OCCO)c3)N2C1=O`
0.194 (inactive)

// same read-out, input: `COCCCNC(=O)[C@@]1(CCC(=O)OC(C)(C)C)N=C(c2ccc(OCCCO)cc2)O[C@H]1c1ccccc1CN=[N+]=[N-]`
4.71 (inactive)

// same read-out, input: Cc1cc(C)c(C(O)C2C=CC3C(=O)N(c4ccccc4)C(=O)C3N2Nc2ccc(C#N)cc2)c(C)c1 (stereo not given)
1.27 (inactive)
